Reference source for all entries: patent US20230365662A1

biological target: HRgpA-6H (Porphyromonas gingivalis) (UniProt P28784); experiment: ELISA, Fab FASEBA supernatant on coated HRgpA-6H
Hi! Could you tag entries with OD450nm below 0.7 OD450nm as y, and those at or above as n? Much appreciated.

Enquiry: In plain terms, does parental mouse (KB001) Fab FASEBA, VL variant S57R (Fab, V domains shown) VH: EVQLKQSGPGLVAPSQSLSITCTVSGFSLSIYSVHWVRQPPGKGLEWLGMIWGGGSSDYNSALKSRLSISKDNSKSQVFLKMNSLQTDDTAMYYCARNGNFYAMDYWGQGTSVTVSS VL: QIVLTQSPAIMSASLGERVTMTCTASSSVSSSFLHWYQQKPGSSPQLWIYSTSNLARGVPARFSGSGSGTSYSLTISSMEAEDAATYYCHQYHHSPYIYTFGGGTKLEIK come in under 0.7 OD450nm for OD450nm?
Return: n

Enquiry: In plain terms, does parental mouse (KB001) Fab FASEBA, VL variant T100I (Fab, V domains shown) VH: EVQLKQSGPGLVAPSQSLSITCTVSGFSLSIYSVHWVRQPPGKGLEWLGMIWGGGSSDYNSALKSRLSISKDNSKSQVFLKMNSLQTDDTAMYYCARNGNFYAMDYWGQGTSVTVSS VL: QIVLTQSPAIMSASLGERVTMTCTASSSVSSSFLHWYQQKPGSSPQLWIYSTSNLASGVPARFSGSGSGTSYSLTISSMEAEDAATYYCHQYHHSPYIYIFGGGTKLEIK come in under 0.7 OD450nm for OD450nm?
Return: y

Enquiry: In plain terms, does parental mouse (KB001) Fab FASEBA, VL variant S57L (Fab, V domains shown) VH: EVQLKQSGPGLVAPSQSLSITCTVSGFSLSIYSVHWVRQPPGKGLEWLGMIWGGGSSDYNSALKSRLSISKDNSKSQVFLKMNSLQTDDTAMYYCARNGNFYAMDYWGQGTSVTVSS VL: QIVLTQSPAIMSASLGERVTMTCTASSSVSSSFLHWYQQKPGSSPQLWIYSTSNLALGVPARFSGSGSGTSYSLTISSMEAEDAATYYCHQYHHSPYIYTFGGGTKLEIK come in under 0.7 OD450nm for OD450nm?
Return: n

Enquiry: In plain terms, does parental mouse (KB001) Fab FASEBA, VL variant Y97R (Fab, V domains shown) VH: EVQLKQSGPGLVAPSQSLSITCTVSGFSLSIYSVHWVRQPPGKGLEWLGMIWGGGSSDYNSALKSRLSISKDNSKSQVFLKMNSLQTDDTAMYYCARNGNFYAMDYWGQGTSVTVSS VL: QIVLTQSPAIMSASLGERVTMTCTASSSVSSSFLHWYQQKPGSSPQLWIYSTSNLASGVPARFSGSGSGTSYSLTISSMEAEDAATYYCHQYHHSPRIYTFGGGTKLEIK come in under 0.7 OD450nm for OD450nm?
Return: n

Enquiry: In plain terms, does parental mouse (KB001) Fab FASEBA, VL variant S57Q (Fab, V domains shown) VH: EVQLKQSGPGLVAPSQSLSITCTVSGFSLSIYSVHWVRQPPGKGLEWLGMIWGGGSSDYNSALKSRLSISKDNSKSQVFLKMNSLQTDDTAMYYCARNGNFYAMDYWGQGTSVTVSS VL: QIVLTQSPAIMSASLGERVTMTCTASSSVSSSFLHWYQQKPGSSPQLWIYSTSNLAQGVPARFSGSGSGTSYSLTISSMEAEDAATYYCHQYHHSPYIYTFGGGTKLEIK come in under 0.7 OD450nm for OD450nm?
Return: y
